Please respond with reported MIC for every item in the list.
Test system: Enterococcus faecalis
Assay: Antibacterial activity against Enterococcus faecalis ATCC 19433 was determined
Type: functional
Details: Enterococcus faecalis, ATCC 19433; read-out: MIC
Answers are plain numbers, in µg/mL.

{"Compound": "CC(=O)NC[C@H]1CN(c2ccc(N3CCOCC3)c(F)c2)C(=O)O1", "Target or system": "Enterococcus faecalis", "Measure name": "MIC", "Experimental value": 3.13}

List reported MIC for each of these compounds:
1. COc1c(N2C[C@@H]3CCCN[C@@H]3C2)c(F)cc2c(=O)c(C(=O)O)cn(C3CC3)c12
2. CN[C@H](CC(C)C)C(=O)N[C@H]1C(=O)N[C@@H](CC(N)=O)C(=O)N[C@H]2C(=O)N[C@H]3C(=O)N[C@H](C(=O)N[C@H](C(=O)O)c4cc(O)cc(O)c4-c4cc3ccc4O)[C@H](O)c3ccc(c(Cl)c3)Oc3cc2cc(c3O[C@@H]2O[C@H](CO)[C@@H](O)[C@H](O)[C@H]2O[C@H]2C[C@](C)(N)[C@H](O)[C@H](C)O2)Oc2ccc(cc2Cl)[C@H]1O
3. Nc1c(F)c(N2C[C@H]3C[C@@H]4C[C@@H]4[C@H](N)[C@H]3C2)c(F)c2c1c(=O)c(C(=O)O)cn2[C@@H]1C[C@@H]1F (stereo in doubt; 26 (+))

[0.2, 0.39, 0.02]

###

Target: DNA topoisomerase II (Homo sapiens, UniProt P11388+Q02880)
Assay: Inhibitory concentration against human DNA topoisomerase II
Format: protein assay
Mark condition met only for IC50 values smaller than 7 µg/mL; exact matches and larger values are condition not met.

Sample answers from the record:
{"Compound": "Nc1c(F)c(N2C[C@H]3CC[C@H]4C[C@@]4(N)[C@H]3C2)c(F)c2c1c(=O)c(C(=O)O)cn2[C@@H]1C[C@@H]1F (stereo in doubt; 13 (+))", "Target or system": "DNA topoisomerase II (Homo sapiens, UniProt P11388+Q02880)", "Classification": "condition not met"}
{"Compound": "Nc1c(F)c(N2C[C@H]3C[C@@H]4C[C@@H]4[C@H](N)[C@H]3C2)c(F)c2c1c(=O)c(C(=O)O)cn2[C@@H]1C[C@@H]1F (stereo in doubt; 26 (+))", "Target or system": "DNA topoisomerase II (Homo sapiens, UniProt P11388+Q02880)", "Classification": "condition met"}
{"Compound": "Cc1c(N2C[C@H]3CCC[C@@H](N)[C@H]3C2)c(F)c(N)c2c(=O)c(C(=O)O)cn([C@@H]3C[C@@H]3F)c12", "Target or system": "DNA topoisomerase II (Homo sapiens, UniProt P11388+Q02880)", "Classification": "condition met"}

Answer whether the compound Nc1c(F)c(N2C[C@H]3C[C@@H]4C[C@@H]4[C@@H](N)[C@H]3C2)c(F)c2c1c(=O)c(C(=O)O)cn2[C@@H]1C[C@@H]1F (stereo in doubt; 24 (+)) has IC50 strictly less than 7 µg/mL
condition not met

Answer whether the compound Cc1c(N2C[C@H]3CC[C@H]4C[C@@]4(N)[C@H]3C2)c(F)c(N)c2c(=O)c(C(=O)O)cn([C@@H]3C[C@@H]3F)c12 has IC50 strictly less than 7 µg/mL
condition not met

###

Experiment: Ratio of binding to human DNA topoisomerase II and Staphylococcus aureus DNA topoisomerase IV
Measure name: Selectivity

Look over these answered cases.
{"Molecule": "Nc1c(F)c(N2C[C@H]3C[C@@H]4C[C@@H]4[C@H](N)[C@H]3C2)c(F)c2c1c(=O)c(C(=O)O)cn2[C@@H]1C[C@@H]1F (stereo in doubt; 26 (+))", "Selectivity": 17.3}
{"Molecule": "Nc1c(F)c(N2C[C@H]3CCC[C@@H](N)[C@H]3C2)c(F)c2c1c(=O)c(C(=O)O)cn2[C@@H]1C[C@@H]1F (stereo in doubt; 28 (+))", "Selectivity": 38.3}
{"Molecule": "Cc1c(N2C[C@H]3CC[C@H]4C[C@@]4(N)[C@H]3C2)c(F)c(N)c2c(=O)c(C(=O)O)cn([C@@H]3C[C@@H]3F)c12", "Selectivity": 93.2}
{"Molecule": "Cc1c(N2C[C@H]3CCC[C@@H](N)[C@H]3C2)c(F)c(N)c2c(=O)c(C(=O)O)cn([C@@H]3C[C@@H]3F)c12", "Selectivity": 14.7}
{"Molecule": "Nc1c(F)c(N2C[C@H]3C[C@@H]4C[C@@H]4[C@@H](N)[C@H]3C2)c(F)c2c1c(=O)c(C(=O)O)cn2[C@@H]1C[C@@H]1F (stereo in doubt; 24 (+))", "Selectivity": 151}

Proceed to the following item.
Output Selectivity of Nc1c(F)c(N2C[C@H]3CC[C@H]4C[C@@]4(N)[C@H]3C2)c(F)c2c1c(=O)c(C(=O)O)cn2[C@@H]1C[C@@H]1F (stereo in doubt; 13 (+))
71.3

###

Please respond with reported MIC for every item in the list.
Test system: Enterococcus faecalis
Assay: Antibacterial activity against Enterococcus faecalis ATCC 19433 was determined
Assay type: functional
Conditions: Enterococcus faecalis, ATCC 19433; read-out: MIC
Answers are plain numbers, in µg/mL.

List reported MIC for each of these compounds:
1. C[C@H]1COc2c(N3CCN(C)CC3)c(F)cc3c(=O)c(C(=O)O)cn1c23.C[C@H]1COc2c(N3CCN(C)CC3)c(F)cc3c(=O)c(C(=O)O)cn1c23.O
2. Cc1c(N2C[C@H]3CC[C@H]4C[C@@]4(N)[C@H]3C2)c(F)c(N)c2c(=O)c(C(=O)O)cn([C@@H]3C[C@@H]3F)c12
3. Cc1c(N2C[C@H]3CCC[C@@H](N)[C@H]3C2)c(F)c(N)c2c(=O)c(C(=O)O)cn([C@@H]3C[C@@H]3F)c12

0.78
0.02
0.02

###

Tested on: Streptococcus pneumoniae
Assay: Antibacterial activity against Penicillin-resistant Streptococcus pneumoniae (PRSP) J-24 was determined
Format: functional
Conditions: Streptococcus pneumoniae; read-out: MIC
Please respond with reported MIC for every item in the list.
Answers are plain numbers, in µg/mL.

Look over these answered cases.
{"Molecule": "C[C@H]1COc2c(N3CCN(C)CC3)c(F)cc3c(=O)c(C(=O)O)cn1c23.C[C@H]1COc2c(N3CCN(C)CC3)c(F)cc3c(=O)c(C(=O)O)cn1c23.O [LEVOFLOXACIN]", "Target or system": "Streptococcus pneumoniae", "Unit tag": "µg/mL", "MIC": 0.78}
{"Molecule": "Cc1c(N2C[C@H]3CC[C@H]4C[C@@]4(N)[C@H]3C2)c(F)c(N)c2c(=O)c(C(=O)O)cn([C@@H]3C[C@@H]3F)c12", "Target or system": "Streptococcus pneumoniae", "Unit tag": "µg/mL", "MIC": 0.006}
{"Molecule": "CN[C@H](CC(C)C)C(=O)N[C@H]1C(=O)N[C@@H](CC(N)=O)C(=O)N[C@H]2C(=O)N[C@H]3C(=O)N[C@H](C(=O)N[C@H](C(=O)O)c4cc(O)cc(O)c4-c4cc3ccc4O)[C@H](O)c3ccc(c(Cl)c3)Oc3cc2cc(c3O[C@@H]2O[C@H](CO)[C@@H](O)[C@H](O)[C@H]2O[C@H]2C[C@](C)(N)[C@H](O)[C@H](C)O2)Oc2ccc(cc2Cl)[C@H]1O [VANCOMYCIN]", "Target or system": "Streptococcus pneumoniae", "Unit tag": "µg/mL", "MIC": 0.2}
{"Molecule": "CC(=O)NC[C@H]1CN(c2ccc(N3CCOCC3)c(F)c2)C(=O)O1 [LINEZOLID]", "Target or system": "Streptococcus pneumoniae", "Unit tag": "µg/mL", "MIC": 0.78}

Proceed to the following item.
Look up Streptococcus pneumoniae data: MIC of COc1c(N2C[C@@H]3CCCN[C@@H]3C2)c(F)cc2c(=O)c(C(=O)O)cn(C3CC3)c12 [MOXIFLOXACIN] , then report it.
0.02

###

System: Staphylococcus aureus
Test: Antibacterial activity against methicillin-resistant Staphylococcus aureus (MRSA) 870307 was determined
Assay type: functional
Measure name: MIC
Please answer in the form of a number followed by its unit of measurement.

{"Molecule": "Nc1c(F)c(N2C[C@H]3C[C@@H]4C[C@@H]4[C@H](N)[C@H]3C2)c(F)c2c1c(=O)c(C(=O)O)cn2[C@@H]1C[C@@H]1F (stereo in doubt; 27 (-))", "MIC": "0.2 µg/mL"}
{"Molecule": "Nc1c(F)c(N2C[C@H]3CCC[C@@H](N)[C@H]3C2)c(F)c2c1c(=O)c(C(=O)O)cn2[C@@H]1C[C@@H]1F (stereo in doubt; 28 (+))", "MIC": "0.006 µg/mL"}

Proceed to the following item.
Output MIC of Nc1c(F)c(N2C[C@H]3C[C@@H]4C[C@@H]4[C@H](N)[C@H]3C2)c(F)c2c1c(=O)c(C(=O)O)cn2[C@@H]1C[C@@H]1F (stereo in doubt; 26 (+))
0.02 µg/mL
